Recorded values, source patent US20140066362A1.

Test system: E. faecalis ATCC29212
Test: MIC of antibiotics with or without PAG/AOAA
Type: cell-based
Details: in the presence of 0.1 mM AOAA
Catalogue of Minimum inhibitory concentration readings, one per entry.

molecule | Minimum inhibitory concentration [µg/mL]
O=C(N[C@H](CO)[C@H](O)c1ccc([N+](=O)[O-])cc1)C(Cl)Cl | 0.5
CC(=O)NC[C@H]1CN(c2ccc(N3CCOCC3)c(F)c2)C(=O)O1 | 0.25
CCN1CCN(C(=O)N[C@@H](C(=O)N[C@@H]2C(=O)N3[C@@H]2SC(C)(C)[C@@H]3C(=O)O)c2ccccc2)C(=O)C1=O | 0.25
CO/N=C(\C(=O)N[C@@H]1C(=O)N2C(C(=O)[O-])=C(C[N+]3(C)CCCC3)CS[C@H]12)c1csc(N)n1 [Cetepine, cefepime] | 2
C[C@@H](O)[C@H]1C(=O)N2C(C(=O)O)=C(S[C@@H]3CN[C@H](C(=O)N(C)C)C3)[C@H](C)[C@H]12 | 0.25
CN[C@H](CC(C)C)C(=O)N[C@H]1C(=O)N[C@@H](CC(N)=O)C(=O)N[C@H]2C(=O)N[C@H]3C(=O)N[C@H](C(=O)N[C@H](C(=O)O)c4cc(O)cc(O)c4-c4cc3ccc4O)[C@H](O)c3ccc(c(Cl)c3)Oc3cc2cc(c3O[C@@H]2O[C@H](CO)[C@@H](O)[C@H](O)[C@H]2O[C@H]2C[C@](C)(N)[C@H](O)[C@H](C)O2)Oc2ccc(cc2Cl)[C@H]1O | 1
C[C@H]1COc2c(N3CCN(C)CC3)c(F)cc3c(=O)c(C(=O)O)cn1c23 | 0.125
